# Test name: Multiple ascending dose study: plasma pharmacokinetics
# Format: in vivo
# Test conditions: human, po, 200 mg, Day 1, 200 mg QD oral, read-out: AUC(0-24 h) GM (% CV)
Quantity name: AUC(0-t) (ng·h/mL)

- Item smiles: "COc1ncc(C)c(-c2ccc3c(c2)[nH]c(=O)c2cnn([C@H]4CCOC4)c23)c1C"
  Measurement unit: "ng·h/mL"
  Quantitative result: 8650

* * *

# Test name: Single dose clinical study: plasma Compound A pharmacokinetics
# Type: in vivo, human
# Test conditions: human, plasma, po, 400 mg, plasma, healthy adults (Parts A,B), single oral 400 mg, fasted; read-out: Vz/F GM

- Molecule: "COc1ncc(C)c(-c2ccc3c(c2)[nH]c(=O)c2cnn([C@H]4CCOC4)c23)c1C [Compound A]"
  Vd/F: "493 L"

* * *

# Test name: Single dose clinical study: plasma Compound A pharmacokinetics
# Type: in vivo, human
# Test conditions: human, plasma, po, 800 mg, plasma, healthy adults (Parts A,B), single oral 800 mg, fasted; read-out: AUC(0-72 h) GM

- Item smiles: "COc1ncc(C)c(-c2ccc3c(c2)[nH]c(=O)c2cnn([C@H]4CCOC4)c23)c1C"
  AUC(0-t): "54700 ng·h/mL"

* * *

# Test name: Multiple ascending dose study: plasma pharmacokinetics
# Type: in vivo
# Test conditions: human, po, 50 mg, Day 1, 50 mg QD oral, read-out: AUC(0-24 h) Mean (SD)

- Item smiles: "COc1ncc(C)c(-c2ccc3c(c2)[nH]c(=O)c2cnn([C@H]4CCOC4)c23)c1C"
  AUC(0-t) [ng·h/mL]: 3110

* * *

# Test name: Multiple ascending dose study: plasma pharmacokinetics
# Format: in vivo
# Test conditions: human, po, 25 mg, Day 1, 25 mg QD oral, read-out: AUC(0-24 h) Median

- Molecule: "COc1ncc(C)c(-c2ccc3c(c2)[nH]c(=O)c2cnn([C@H]4CCOC4)c23)c1C [Compound A]"
  Measurement unit: "µg·h/mL"
  AUC(0-t): 1.7

* * *

# Test name: Multiple ascending dose study: plasma pharmacokinetics
# Type: in vivo
# Test conditions: human, po, 100 mg, Day 1, 100 mg QD oral, read-out: Cmax GM (% CV)

- Item smiles: "COc1ncc(C)c(-c2ccc3c(c2)[nH]c(=O)c2cnn([C@H]4CCOC4)c23)c1C"
  Cmax (ng/mL): 366

* * *

# Test name: Multiple ascending dose study: plasma pharmacokinetics
# Type: in vivo
# Test conditions: human, po, 200 mg, Day 14, 200 mg QD oral, read-out: AUC(0-inf) Mean (SD)

- Item smiles: "COc1ncc(C)c(-c2ccc3c(c2)[nH]c(=O)c2cnn([C@H]4CCOC4)c23)c1C"
  AUC(0-inf): "72200 ng·h/mL"

* * *

# Test name: Single dose clinical study: plasma Compound A pharmacokinetics
# Type: in vivo, human
# Test conditions: human, plasma, po, 400 mg, plasma, healthy adults (Parts A,B), single oral 400 mg, fasted; read-out: AUC(0-t) GM

- Item smiles: "COc1ncc(C)c(-c2ccc3c(c2)[nH]c(=O)c2cnn([C@H]4CCOC4)c23)c1C"
  AUC(0-t): "35500 ng·h/mL"

* * *

# Test name: Single dose clinical study: plasma Compound A pharmacokinetics
# Format: in vivo, human
# Test conditions: human, plasma, oral, 100 mg, Fasted, 100 mg, Part B; read-out: Cmax Geometric LS Means Reference
# Method: This was a single center, single dose, randomized, double blind, placebo controlled study in healthy subjects. It consisted of 4 parts: Parts A, B, C, and D. Each of the four study parts had 2 phases: Prerandomization Phase and Randomization Phase. The Prerandomization Phase lasted up to 30 days and consisted of a Screening Period and a Baseline Period, during which each subject's study eligibility was determined and baseline assessments were performed. […]

- Item smiles: "COc1ncc(C)c(-c2ccc3c(c2)[nH]c(=O)c2cnn([C@H]4CCOC4)c23)c1C"
  Cmax / ng/mL: 371

* * *

# Test name: Multiple ascending dose study: plasma pharmacokinetics
# Assay type: in vivo
# Test conditions: human, po, 400 mg, Day 14, 400 mg QD oral, Japanese, read-out: tmax Median

- Item smiles: "COc1ncc(C)c(-c2ccc3c(c2)[nH]c(=O)c2cnn([C@H]4CCOC4)c23)c1C"
  Tmax / h: 1.5

* * *

# Test name: Single dose clinical study: plasma Compound A pharmacokinetics
# Assay type: in vivo, human
# Test conditions: human, plasma, po, 25 mg, plasma, Japanese Subjects (Part D), single oral 25 mg; read-out: Cmax GM (% CV)
# Protocol: This was a single center, single dose, randomized, double blind, placebo controlled study in healthy subjects. It consisted of 4 parts: Parts A, B, C, and D. Each of the four study parts had 2 phases: Prerandomization Phase and Randomization Phase. The Prerandomization Phase lasted up to 30 days and consisted of a Screening Period and a Baseline Period, during which each subject's study eligibility was determined and baseline assessments were performed. […]

- Item smiles: "COc1ncc(C)c(-c2ccc3c(c2)[nH]c(=O)c2cnn([C@H]4CCOC4)c23)c1C"
  Measurement unit: "ng/mL"
  Cmax: 212

* * *

# Test name: Multiple ascending dose study: plasma pharmacokinetics
# Format: in vivo
# Test conditions: human, po, 50 mg, Day 14, 50 mg QD oral, read-out: Cmax Median
Quantity name: Cmax (ng/mL)

- Compound: "COc1ncc(C)c(-c2ccc3c(c2)[nH]c(=O)c2cnn([C@H]4CCOC4)c23)c1C [Compound A]"
  Quantitative result: 807

* * *

# Test name: Single dose clinical study: plasma Compound A pharmacokinetics
# Assay type: in vivo, human
# Test conditions: human, plasma, po, 200 mg, plasma, healthy adults (Parts A,B), single oral 200 mg, fasted; read-out: AUC(0-inf) GM

- Compound: "COc1ncc(C)c(-c2ccc3c(c2)[nH]c(=O)c2cnn([C@H]4CCOC4)c23)c1C [Compound A]"
  Measurement unit: "ng·h/mL"
  AUC(0-inf): 22400

* * *

# Test name: Multiple ascending dose study: plasma pharmacokinetics
# Type: in vivo
# Test conditions: human, po, 50 mg, Part C, 50 mg oral, read-out: tmax Median

- Item smiles: "COc1ncc(C)c(-c2ccc3c(c2)[nH]c(=O)c2cnn([C@H]4CCOC4)c23)c1C"
  Measurement unit: "h"
  Tmax: 1.98

* * *

# Test name: Multiple ascending dose study: plasma pharmacokinetics
# Format: in vivo
# Test conditions: human, po, 400 mg, Day 1, 400 mg QD oral, Non-Japanese, read-out: AUC(0-24 h) Mean (SD)
Quantity name: AUC(0-t) (ng·h/mL)

- Item smiles: "COc1ncc(C)c(-c2ccc3c(c2)[nH]c(=O)c2cnn([C@H]4CCOC4)c23)c1C"
  Quantity name: "AUC(0-t)"
  Quantitative result: 14600

* * *

# Test name: Multiple ascending dose study: plasma pharmacokinetics
# Assay type: in vivo
# Test conditions: human, po, 25 mg, Day 14, 25 mg QD oral, read-out: AUC(0-inf) Median

- Item smiles: "COc1ncc(C)c(-c2ccc3c(c2)[nH]c(=O)c2cnn([C@H]4CCOC4)c23)c1C"
  AUC(0-inf), ng·h/mL: 14000

* * *

# Test name: Multiple ascending dose study: plasma pharmacokinetics
# Format: in vivo
# Test conditions: human, po, 200 mg, Day 14, 200 mg QD oral, read-out: AUC(0-24 h) Mean (SD)

- Item smiles: "COc1ncc(C)c(-c2ccc3c(c2)[nH]c(=O)c2cnn([C@H]4CCOC4)c23)c1C"
  AUC(0-t), ng·h/mL: 23100

* * *

# Test name: Single dose clinical study: plasma Compound A pharmacokinetics
# Assay type: in vivo, human
# Test conditions: human, plasma, po, 400 mg, plasma, healthy adults (Parts A,B), single oral 400 mg, fasted; read-out: AUC(0-30 h) GM

- Compound: "COc1ncc(C)c(-c2ccc3c(c2)[nH]c(=O)c2cnn([C@H]4CCOC4)c23)c1C [Compound A]"
  AUC(0-t): "15200 ng·h/mL"

* * *

# Test name: Single dose clinical study: plasma Compound A pharmacokinetics
# Assay type: in vivo, human
# Test conditions: human, plasma, po, 25 mg, plasma, Japanese Subjects (Part D), single oral 25 mg; read-out: AUC(0-inf) GM
# Method: This was a single center, single dose, randomized, double blind, placebo controlled study in healthy subjects. It consisted of 4 parts: Parts A, B, C, and D. Each of the four study parts had 2 phases: Prerandomization Phase and Randomization Phase. The Prerandomization Phase lasted up to 30 days and consisted of a Screening Period and a Baseline Period, during which each subject's study eligibility was determined and baseline assessments were performed. […]
Quantity name: AUC(0-inf) (ng·h/mL)

- Item smiles: "COc1ncc(C)c(-c2ccc3c(c2)[nH]c(=O)c2cnn([C@H]4CCOC4)c23)c1C"
  Quantity name: "AUC(0-inf)"
  Quantitative result: 4580

* * *

# Test name: Single dose clinical study: plasma Compound A pharmacokinetics
# Format: in vivo, human
# Test conditions: human, plasma, oral, 400 mg, Japanese, 400 mg, without weight as covariate; read-out: Cmax Geometric LS Means Test
Quantity name: Cmax (ng/mL)

- Compound: "COc1ncc(C)c(-c2ccc3c(c2)[nH]c(=O)c2cnn([C@H]4CCOC4)c23)c1C [Compound A]"
  Quantity name: "Cmax"
  Measurement unit: "ng/mL"
  Quantitative result: 1180
